Target: Gonadotropin-releasing hormone receptor (Rattus norvegicus) (UniProt P30969)
Sequence (P30969 whole entry, looked up): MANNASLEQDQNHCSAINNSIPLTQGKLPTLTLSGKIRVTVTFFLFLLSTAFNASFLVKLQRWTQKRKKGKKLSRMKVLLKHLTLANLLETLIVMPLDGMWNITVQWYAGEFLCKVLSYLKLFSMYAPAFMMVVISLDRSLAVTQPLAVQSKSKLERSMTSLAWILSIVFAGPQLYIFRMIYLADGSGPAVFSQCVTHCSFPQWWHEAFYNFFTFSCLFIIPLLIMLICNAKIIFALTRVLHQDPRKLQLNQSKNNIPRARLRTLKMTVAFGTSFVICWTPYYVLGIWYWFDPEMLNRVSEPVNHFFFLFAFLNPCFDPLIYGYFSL
Test: Antagonist potency at GnRH receptor relative to a standard ([Ac-delta3Pro, DFpa2, DTrp3,6]GnRH).
observed-property: Relative potency
Please respond with just the number, no unit label.

- smiles-text: "CCCC/N=C(\\NC#N)NCCCC[C@H](NC(=O)[C@H](CC(C)C)NC(=O)[C@@H](CCCCNC(=O)c1cccnc1)NC(=O)[C@H](CCCCNC(=O)c1cccnc1)NC(=O)[C@H](CO)NC(=O)[C@H](Cc1c[nH]c2ccccc12)NC(=O)[C@H](Cc1c[nH]cn1)NC(=O)[C@@H]1CCC(=O)N1)C(=O)N1CCC[C@H]1C(=O)N[C@H](C)C(N)=O"
  target-entity: "Gonadotropin-releasing hormone receptor (Rattus norvegicus) (UniProt P30969)"
  Relative potency: 0.3

The reported Relative potency of the compound `CC(C)C[C@H](NC(=O)[C@@H](Cc1cccnc1)NC(=O)[C@H](Cc1ccc(O)cc1)NC(=O)[C@H](CO)NC(=O)[C@H](Cc1ccc(Nc2n[nH]c(N)n2)cc1)NC(=O)[C@H](Cc1c[nH]cn1)NC(=O)[C@@H]1CCC(=O)N1)C(=O)N[C@@H](CCCCNC(C)C)C(=O)N1CCC[C@H]1C(=O)N[C@H](C)C(N)=O` was 0.06

Numbers sourced from ChEMBL document CHEMBL1125607.
